testDescription: AUC in BALB/cAnNCrl mouse muscle at 2 mg/kg, iv
Format: ADME, organism-based, Muscle tissue
Design: dose 2 mg/kg, route intravenous
measuredParameter: AUC (µM·h)

| entrySmiles | measuredParameter | endpointResult |
| --- | --- | --- |
| Cn1c(=O)[nH]c2c(Oc3ccc(NC(=O)Nc4ccc(Cl)c(C(F)(F)F)c4)cc3)ccnc21 | AUC | 9.46 |

###

Reported pIC50 values follow for various molecules
testSystem: Serine/threonine-protein kinase B-raf (Homo sapiens, UniProt P15056, V600E)
Sequence (P15056 2-766 V600E limits assumed): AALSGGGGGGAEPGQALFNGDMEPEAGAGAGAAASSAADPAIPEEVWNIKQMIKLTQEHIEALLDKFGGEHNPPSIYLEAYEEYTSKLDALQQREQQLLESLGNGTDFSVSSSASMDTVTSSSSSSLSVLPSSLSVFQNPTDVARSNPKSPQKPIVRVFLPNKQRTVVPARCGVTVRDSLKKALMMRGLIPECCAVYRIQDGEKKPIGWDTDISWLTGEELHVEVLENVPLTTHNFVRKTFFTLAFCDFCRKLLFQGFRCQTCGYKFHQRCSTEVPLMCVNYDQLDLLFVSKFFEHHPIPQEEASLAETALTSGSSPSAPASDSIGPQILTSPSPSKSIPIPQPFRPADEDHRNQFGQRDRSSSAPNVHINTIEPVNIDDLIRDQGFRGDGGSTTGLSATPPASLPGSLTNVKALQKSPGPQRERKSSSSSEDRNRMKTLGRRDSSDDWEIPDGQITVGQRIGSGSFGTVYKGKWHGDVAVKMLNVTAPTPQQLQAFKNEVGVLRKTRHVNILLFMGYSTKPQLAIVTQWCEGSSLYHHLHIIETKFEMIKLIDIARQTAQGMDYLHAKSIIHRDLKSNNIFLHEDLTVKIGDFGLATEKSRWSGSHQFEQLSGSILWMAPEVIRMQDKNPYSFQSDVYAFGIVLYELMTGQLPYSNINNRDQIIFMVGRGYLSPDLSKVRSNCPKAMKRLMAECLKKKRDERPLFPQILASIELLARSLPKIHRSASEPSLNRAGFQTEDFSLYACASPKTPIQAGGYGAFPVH
pIC50: −log10 of the molar value.
measuredParameter: pIC50

| entrySmiles | measuredParameter | qualifierSymbol | endpointResult |
| --- | --- | --- | --- |
| COc1ccc(C(F)(F)F)cc1NC(=O)Nc1ccc(Oc2ccnc3[nH]c(=O)[nH]c23)cc1 | pIC50 | = | 7.92 |
| O=C(Nc1ccc(Oc2ccnc3[nH]c(=O)[nH]c23)cc1)Nc1cccc(OC(F)(F)F)c1 | pIC50 | = | 7.68 |
| O=C(Nc1ccc(Oc2ccnc3[nH]c(=O)[nH]c23)cc1)c1cccc(C(F)(F)F)c1 | pIC50 | = | 4.76 |
| O=C(Nc1ccc(Oc2ccnc3[nH]c(=O)[nH]c23)cc1)Nc1ccc(C(F)(F)F)cc1 | pIC50 | < | 4.00 |

###

testDescription: Metabolic stability in mouse liver microsomes assessed as drug metabolism at 10 uM
Type: ADME, Microsome
assayConditions: read-out: Activity
measuredParameter: metabolised at 10 µM

| entrySmiles | measuredParameter | endpointResult |
| --- | --- | --- |
| O=C(Nc1ccc(Oc2ccnc3[nH]c(=O)[nH]c23)cc1)Nc1ccc(Cl)c(C(F)(F)F)c1 | metabolised at 10 µM | 0% |
| COc1cc(Cl)c(C(F)(F)F)cc1NC(=O)Nc1ccc(Oc2ccnc3[nH]c(=O)[nH]c23)cc1 | metabolised at 10 µM | 8% |
| Cn1c(=O)[nH]c2nccc(Oc3ccc(NC(=O)Nc4ccc(Cl)c(C(F)(F)F)c4)cc3)c21 | metabolised at 10 µM | 11% |
| O=c1[nH]c2nccc(Oc3ccc(NS(=O)(=O)c4ccccc4)cc3)c2[nH]1 | metabolised at 10 µM | 5% |

###

testDescription: Half life in BALB/cAnNCrl mouse muscle at 2 mg/kg, iv
Type: ADME, organism-based, Muscle tissue
Design: dose 2 mg/kg, route intravenous

| entrySmiles | measurementUnit | half-life |
| --- | --- | --- |
| Cn1c(=O)[nH]c2c(Oc3ccc(NC(=O)Nc4ccc(Cl)c(C(F)(F)F)c4)cc3)ccnc21 | h | 4.35 |

###

Serine/threonine-protein kinase B-raf (Homo sapiens, UniProt P15056, V600E): recorded IC50 for assorted molecules

| entrySmiles | IC50 |
| --- | --- |
| O=C(Nc1ccc(Oc2ccnc3[nH]c(=O)[nH]c23)cc1)Nc1ccc(Cl)c(C(F)(F)F)c1 | 23 nM |
| O=c1[nH]c2nccc(Oc3ccc(NC(=S)Nc4ccc(Cl)c(C(F)(F)F)c4)cc3)c2[nH]1 | 85 nM |
| Cn1c(=O)[nH]c2nccc(Oc3ccc(NC(=O)Nc4ccc(Cl)c(C(F)(F)F)c4)cc3)c21 | 22 nM |
| O=C(Nc1ccc(Oc2ccnc3[nH]c(=O)[nH]c23)cc1)Nc1cccc(C(F)(F)F)c1 | 14 nM |
| Cn1c(=O)[nH]c2c(Oc3ccc(NC(=O)Nc4cccc(C(C)(C)C)c4)cc3)ccnc21 | 60 nM |
| O=C(Nc1ccc(Sc2ccnc3[nH]c(=O)[nH]c23)cc1)Nc1cccc(C(F)(F)F)c1 | 28 nM |
| O=C(Nc1ccc(Sc2ccnc3[nH]c(=O)[nH]c23)cc1)Nc1cc(C(F)(F)F)ccc1F | 29 nM |
| COc1cc(Cl)c(C(F)(F)F)cc1NC(=O)Nc1ccc(Oc2ccnc3[nH]c(=O)[nH]c23)cc1 | 27 nM |
| O=C(Nc1ccc(Cl)cc1)Nc1ccc(Oc2ccnc3[nH]c(=O)[nH]c23)cc1 | > 100000 nM |
| O=c1[nH]c2nccc(Oc3ccc(NS(=O)(=O)c4ccc(F)cc4)cc3)c2[nH]1 | > 100000 nM |
| O=C(Nc1ccc(Sc2ccnc3[nH]c(=O)[nH]c23)cc1)Nc1ccc(Cl)c(C(F)(F)F)c1 | 40 nM |
| O=C(Nc1ccc(Oc2ccnc3[nH]c(=O)[nH]c23)cc1)Nc1cc(C(F)(F)F)ccc1N1CCOCC1 | 860 nM |
| O=c1[nH]c2nccc(Oc3ccc(NS(=O)(=O)c4ccccc4F)cc3)c2[nH]1 | 32500 nM |
| O=c1[nH]c2nccc(Oc3ccc(NS(=O)(=O)c4ccc(Cl)c(C(F)(F)F)c4)cc3)c2[nH]1 | > 100000 nM |
| O=C(Nc1ccc(Oc2ccnc3[nH]c(=O)[nH]c23)cc1)c1ccccc1 | > 100000 nM |
| O=C(Nc1ccc(Oc2ccnc3[nH]c(=O)[nH]c23)cc1)Nc1ccccc1C(F)(F)F | > 100000 nM |
| O=c1[nH]c2nccc(Oc3ccc(NS(=O)(=O)c4ccc(C(F)(F)F)cc4)cc3)c2[nH]1 | > 100000 nM |
| O=c1[nH]c2nccc(Oc3ccc(NS(=O)(=O)c4cccs4)cc3)c2[nH]1 | 12200 nM |

Source listed as ChEMBL document CHEMBL1153434.
